Assay system: human EGFR (d746-750/C797S) (Homo sapiens, UniProt P00533, C797S/DEL746-750)
Construct: purchased SignalChem
Sequence (P00533 with tags, fused parts or gaps DEL746-750/C797S): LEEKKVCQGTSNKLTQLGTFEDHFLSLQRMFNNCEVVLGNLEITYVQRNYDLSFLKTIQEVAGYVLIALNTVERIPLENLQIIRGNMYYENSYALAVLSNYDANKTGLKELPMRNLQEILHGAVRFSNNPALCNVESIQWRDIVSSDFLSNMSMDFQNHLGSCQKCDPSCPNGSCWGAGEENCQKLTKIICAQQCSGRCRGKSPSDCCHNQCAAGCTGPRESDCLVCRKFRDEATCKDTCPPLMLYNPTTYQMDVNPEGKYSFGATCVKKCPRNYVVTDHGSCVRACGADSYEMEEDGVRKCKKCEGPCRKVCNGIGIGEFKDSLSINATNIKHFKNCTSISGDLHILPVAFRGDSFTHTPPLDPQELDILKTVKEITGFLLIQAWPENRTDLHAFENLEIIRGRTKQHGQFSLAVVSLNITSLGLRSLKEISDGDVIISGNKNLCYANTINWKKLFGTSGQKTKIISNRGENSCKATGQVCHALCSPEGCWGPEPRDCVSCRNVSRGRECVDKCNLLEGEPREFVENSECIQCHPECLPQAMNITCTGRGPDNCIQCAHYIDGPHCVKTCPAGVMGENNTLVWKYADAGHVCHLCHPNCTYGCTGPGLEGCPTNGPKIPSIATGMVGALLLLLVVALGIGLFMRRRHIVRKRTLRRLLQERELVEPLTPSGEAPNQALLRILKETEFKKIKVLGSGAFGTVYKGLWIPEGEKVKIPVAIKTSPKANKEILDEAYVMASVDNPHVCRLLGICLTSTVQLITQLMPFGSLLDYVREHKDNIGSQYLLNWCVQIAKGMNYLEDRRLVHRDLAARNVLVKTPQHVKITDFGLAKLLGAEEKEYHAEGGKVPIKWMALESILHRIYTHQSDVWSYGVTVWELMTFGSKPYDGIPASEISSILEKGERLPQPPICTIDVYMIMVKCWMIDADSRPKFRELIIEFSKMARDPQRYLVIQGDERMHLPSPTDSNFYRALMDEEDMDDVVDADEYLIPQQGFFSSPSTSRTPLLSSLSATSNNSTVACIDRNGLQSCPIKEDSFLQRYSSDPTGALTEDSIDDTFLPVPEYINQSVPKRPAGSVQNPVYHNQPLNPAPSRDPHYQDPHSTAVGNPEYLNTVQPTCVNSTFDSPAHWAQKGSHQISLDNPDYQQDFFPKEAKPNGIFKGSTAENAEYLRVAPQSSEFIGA
Assay protocol: Inhibitory activity against EGFR (d746-750/C797S) kinase
Type: biochemical
Assay context: Test Example 1, Table 4; ATP 14 μM, 60 minutes
Assay readout: IC50 (nM)
Write down the numeric answer in nM and omit the unit.

Take a look at these entries with their results.
Smiles text: C#Cc1c(-c2cnc3ccccc3c2)c2c(N)ncnc2n1C12CCC(NC(=O)c3cnc(N(C)C)cn3)(CC1)C2
Assay system: human EGFR (d746-750/C797S) (Homo sapiens, UniProt P00533, C797S/DEL746-750)
Unit name: nM
IC50: 0.59

Smiles text: C#Cc1c(-c2cnc3ccccc3c2)c2c(N)ncnc2n1C12CCC(NC(=O)c3cncc(OCF)n3)(CC1)C2
Assay system: human EGFR (d746-750/C797S) (Homo sapiens, UniProt P00533, C797S/DEL746-750)
Unit name: nM
IC50: 0.56

The record that follows has no IC50 shown yet.
## Input Name the recorded IC50 for C#Cc1c(-c2cnc3ccccc3c2)c2c(N)ncnc2n1C12CCC(NC(=O)c3noc(C)n3)(CC1)C2 .
## Output 0.61
